The following molecules are shown together with reported Km values.
System: PTP1B
Test: Phosphatase activity of PTP1B constructs against pNPP (enzyme assay)
Assay type: biochemical, human
Condition: pNPP substrate, pH 7.5, 0.15 μM PTP1B (FIG. 17)

Molecule	Km (µM)
PTP1BY152A: PTP1B1-301 mutant with mutation in the L11 loop (protein, UniProt P18031 1-301, looked up, variant Y152A) MEMEKEFEQIDKSGSWAAIYQDIRHEASDFPCRVAKLPKNKNRNRYRDVSPFDHSRIKLHQEDNDYINASLIKMEEAQRSYILTQGPLPNTCGHFWEMVWEQKSRGVVMLNRVMEKGSLKCAQYWPQKEEKEMIFEDTNLKLTLISEDIKSAYTVRQLELENLTTQETREILHFHYTTWPDFGVPESPASFLNFLFKVRESGSLSPEHGPVVVHCSAGIGRSGTFCLADTCLLLMDKRKDPSSVDIKKVLLEMRKFRMGLIQTADQLRFSYLAVIEGAKFIMGDSSVQDQWKELSHEDLEP	960
PTP1BY153F: PTP1B1-301 mutant with mutation in the L11 loop (protein, UniProt P18031 1-301, looked up, variant Y153F) MEMEKEFEQIDKSGSWAAIYQDIRHEASDFPCRVAKLPKNKNRNRYRDVSPFDHSRIKLHQEDNDYINASLIKMEEAQRSYILTQGPLPNTCGHFWEMVWEQKSRGVVMLNRVMEKGSLKCAQYWPQKEEKEMIFEDTNLKLTLISEDIKSYFTVRQLELENLTTQETREILHFHYTTWPDFGVPESPASFLNFLFKVRESGSLSPEHGPVVVHCSAGIGRSGTFCLADTCLLLMDKRKDPSSVDIKKVLLEMRKFRMGLIQTADQLRFSYLAVIEGAKFIMGDSSVQDQWKELSHEDLEP	900
PTP1BY153A: PTP1B1-301 mutant with mutation in the L11 loop (protein, UniProt P18031 1-301, looked up, variant Y153A) MEMEKEFEQIDKSGSWAAIYQDIRHEASDFPCRVAKLPKNKNRNRYRDVSPFDHSRIKLHQEDNDYINASLIKMEEAQRSYILTQGPLPNTCGHFWEMVWEQKSRGVVMLNRVMEKGSLKCAQYWPQKEEKEMIFEDTNLKLTLISEDIKSYATVRQLELENLTTQETREILHFHYTTWPDFGVPESPASFLNFLFKVRESGSLSPEHGPVVVHCSAGIGRSGTFCLADTCLLLMDKRKDPSSVDIKKVLLEMRKFRMGLIQTADQLRFSYLAVIEGAKFIMGDSSVQDQWKELSHEDLEP	930
